Where these numbers come from: patent US8642622B2

Reported clearance values for the following compounds.
Test: Single-dose pharmacokinetics in dogs
Format: in vivo
Conditions: male, beagle, dog, plasma, intravenous
Description: Serial blood samples were collected for all studies at various time points post dose (0.17 (or 0.25 for oral), 0.5, 0.75, 1, 2, 4, 6, 8 and 24 h, for example). Plasma samples were analyzed by LC-MS/MS.
Unit mL/min/kg implied. Number only.

{"compound": "CC(C)[C@@H](NC(=O)[C@@H]1CC[C@@H](O)C1)C(=O)N1CC[C@](O)(c2ccc(Cl)cc2)C(C)(C)C1 [Example 572]", "readout_number": 4.9}
{"compound": "CC(C)[C@@H](NC(=O)[C@@H]1CCC(F)(F)C1)C(=O)N1CC[C@](O)(c2ccc(Cl)cc2)[C@@](C)(O)C1 [Compound I]", "readout_number": 0.6}

Next compound, clearance to be filled in.
Entry CC(C)[C@@H](NC(=O)c1cccc(S(N)(=O)=O)c1)C(=O)N1CC[C@](O)(c2ccc(Cl)cc2)C(C)(C)C1 [Example 491] : reported clearance = ?
7.9
